Just for reference, ChEMBL document CHEMBL2331422 is where these values come from.

System: RAW264.7
Assay: Inhibition of nitric oxide production in LPS-stimulated mouse RAW264.7 cells at 100 uM by Griess reagent assay
Assay type: functional
For each entry below, report its inhibition at 100 µM value.

| compound | target | inhibition at 100 µM |
| --- | --- | --- |
| C=C1CC[C@H]2[C@](C)(CO)[C@@H](O)CC[C@]2(C)[C@H]1CCC1=CC(=O)OC1 | RAW264.7 | < 10% |
| C=C1CC[C@H]2C(C)(C)CCC[C@]2(C)[C@H]1C/C=C(/CO)[C@@H](O)CO | RAW264.7 | < 10% |
| CC1(C)C(=O)CC[C@]2(C)[C@H]3CCC4=CC(=O)O[C@@H]4[C@@]3(C)C(=O)C[C@@H]12 | RAW264.7 | < 10% |
| CC1(C)CCC[C@]2(C)[C@H]3CCC4=CC(=O)O[C@@H]4[C@@]3(C)C(=O)C[C@@H]12 | RAW264.7 | < 10% |
| C=C1CC[C@H]2[C@](C)(CO)[C@@H](O)CC[C@]2(C)[C@H]1C/C=C1\CCOC1=O | RAW264.7 | < 10% |
| CC1(C)[C@@H](O)CC[C@]2(C)[C@H]3CCC4=CC(=O)O[C@@H]4[C@@]3(C)C(=O)C[C@@H]12 | RAW264.7 | < 10% |

Now for a further compound.
Param item = CC1(C)CCC[C@]2(C)[C@H]3CC=C(CCO)C(O)[C@@]3(C)C(=O)C[C@@H]12 (some centres not stated) ; retrieve measured inhibition at 100 µM. < 10%
